Every entry's value here was drawn from PubChem BioAssay AID488854.

biological target: Lysosomal acid glucosylceramidase (Homo sapiens); test: qHTS Assay for Inhibitors and Activators of N370S glucocerebrosidase as a Potential Chaperone Treatment of Gaucher Disease: Confirmation for Probe SAR; settings: N370S GC spleen homogenate, 4MU-glucoside fluorescence; series mostly up to 57.5 µM
Inconclusive results are not listed. Activity calls are given as the source filed them. Calls follow the shape of the dose curve; as a rule, active = well fitted activation curve with a large enough effect; inconclusive = small, poorly fitted or top-dose-only effect; inactive = no such curve, though single readings can be large or run the other way.
Choose one outcome from this list and give only that: Y (active), N (inactive)

COc1ccc(NC(=O)c2cnn3c(C)cc(C)nc23)cc1Cl Y
Cc1cc(C)n2ncc(C(=O)Nc3ccc4c(c3)CCC4)c2n1 Y
Cc1cc(C)n2ncc(C(=O)NCc3ccccc3)c2n1 Y
CC(=O)Nc1ccc(NC(=O)c2cnn3c(C)cc(C)nc23)cc1 N
Cc1cc(C)n2ncc(C(=O)Nc3ccccc3C)c2n1 Y
Cc1cc(C)n2ncc(C(=O)Nc3ccc(C(F)(F)F)cc3)c2n1 Y
O=C(Nc1ccc2c(c1)CCC2)c1cnn2c1NC(=C1CC1)C=C2C(F)F Y
CNC(=O)c1cnn2c(C)cc(C)nc12 N

(Q) Please indicate how the test categorized `COc1ccc(NC(=O)c2cnn3c(C)cc(C)nc23)cc1F` .
(A) Y

(Q) Please indicate how the test categorized `Cc1cc(C)n2ncc(C(=O)Nc3ccc(Br)cc3)c2n1` .
(A) Y

(Q) Please indicate how the test categorized `COc1ccc(NC(=O)c2cnn3c(-c4ccccc4)cc(C)nc23)cc1` .
(A) N

(Q) Please indicate how the test categorized `O=C(Nc1ccccc1Sc1ccccc1)c1cnn2c1NC(=C1CC1)C=C2C(F)(F)F` .
(A) Y

(Q) Please indicate how the test categorized `Cc1cc(C)n2ncc(C(=O)Nc3ccc4c(c3)OCCO4)c2n1` .
(A) Y

(Q) Please indicate how the test categorized `Cc1cc(C)n2ncc(C(=O)NCC(C)C)c2n1` .
(A) Y

(Q) Please indicate how the test categorized `Cc1cc(C)n2ncc(C(=O)N3CCCC3)c2n1` .
(A) N

(Q) Please indicate how the test categorized `Cc1cc(C)n2ncc(C(=O)NC(C)C)c2n1` .
(A) N

---

biological target: Lysosomal acid glucosylceramidase (Homo sapiens); test: qHTS Assay for Inhibitors and Activators of N370S glucocerebrosidase as a Potential Chaperone Treatment of Gaucher Disease: Confirmation for Probe SAR; conditions: N370S GC spleen homogenate, 4MU-glucoside fluorescence; series mostly up to 57.5 µM
Records with an inconclusive call do not appear. The source made the active and inactive calls. Calls come from the whole dose curve; as a rule, active = well fitted activation curve with a large enough effect; inconclusive = small, poorly fitted or top-dose-only effect; inactive = no such curve, though single readings can be large or run the other way.
Choose one outcome from this list and give only that: active, inactive

Consider the worked cases shown below.
Cc1cc(C)n2ncc(C(=O)Nc3cccc(C(F)(F)F)c3)c2n1 active
CC(=O)Nc1ccccc1NC(=O)c1cnn2c(C)cc(C)nc12 inactive
Cc1cc(C)n2ncc(C(=O)Nc3ccccc3Sc3ccccc3)c2n1 active
Cc1cc(C)n2ncc(C(=O)Nc3ccc(Cl)c(Cl)c3)c2n1 active

(Q) Please indicate how the test categorized `COc1ccc(NC(=O)c2cnn3c(C)cc(C)nc23)cc1` .
(A) active

(Q) Please indicate how the test categorized `Cc1ccc(NC(=O)c2cnn3c(C)cc(C)nc23)cc1` .
(A) active
